Tested on: CCRF-CEM leukemia
Assay: NCI tumour cell line growth inhibition, 48 h
Where a SMILES comes first, the peptide text is derived from it. [ ]: non-standard residue; d: D form. The star is where a group is joined. X28 = COC1=CC(=O)N(C(=O)[C@@H](O*)C(C)C)[C@H]1Cc1ccccc1; NMeL = CN[C@@H](CC(C)C)C(=O)O; Cbz = O=C(OCc1ccccc1)*
Consider the following molecules; for each one, report its TGI.

Consider the reported TGI for these molecules:
CCCCCCCCC[C@@H]1C[C@@H]2CCC3C(C(=O)OCCCCNC(=O)OCc4ccccc4)=C(C)NC(=N1)N32 (stereo partly specified)
8.93 µM
CCCCCCCCCCCCOC(=S)NC
> 100 µM
[N-]=[N+]=NC(c1cn(C2CC(O)C(CO)O2)c(=O)[nH]c1=O)C(I)I (stereo unspecified)
> 100 µM
CCOc1ccc(-n2c(=O)n3c(Nc4ccc(Cl)cc4)nc4c(c(=O)n(C)c(=O)n4C)n3c2=O)cc1
52.9 µM

I have 4 molecules here; please give me TGI for each one.
1. COc1ccc(Cn2c3c(c4c(O)cccc42)C(=O)c2ccccc2-3)cc1
2. CC(=O)[CH-]C(=O)c1ccccc1.CC(=O)[CH-]C(=O)c1ccccc1.CC[O-].O=C1C=C([O-])C(=O)c2ccccc21.[Ti+4]
3. COC1=CC(=O)N(C(=O)[C@@H](OC(=O)[C@@H]2CCCN2C(=O)[C@@H]2CCCN2C(=O)[C@H](CC(C)C)N(C)C(=O)[C@@H](NC(=O)[C@@H](NC(=O)OCc2ccccc2)C(C)C)C(C)C)C(C)C)[C@H]1Cc1ccccc1 (Cbz-VV[NMeL]PP-X28)
4. CN(C)NC(=S)NC12CC3CC(CC(C3)C1)C2

A.
> 100 µM
> 100 µM
> 100 µM
> 100 µM

I have 6 molecules here; please give me TGI for each one.
1. Cc1cc(S(=O)(=O)Nc2nc3ccsc3c(=O)n2Cc2ccccc2)c(S)cc1Cl
2. O=C(Nc1ccc(Cl)cc1)c1cc(S(=O)(=O)NC2=NC(c3ccccc3)c3cc(Cl)ccc3N2)c(SSc2cc(Cl)c(C(=O)Nc3ccc(Cl)cc3)cc2S(=O)(=O)NC2=NC(c3ccccc3)c3cc(Cl)ccc3N2)cc1Cl (stereo unspecified)
3. Cc1sc2c(c1C)C(c1ccc(Cl)cc1)=N[C@@H](CC(=O)Nc1ccc(O)cc1)c1nnc(C)n1-2
4. CCC[CH2][Sn]1([CH2]CCC)[O]CC([CH2][Sn]([c]2ccccc2)([c]2ccccc2)[c]2ccccc2)[O]1 (stereo unspecified)
5. COc1cc(C(=O)/C=C/c2c(-c3cccs3)nc3ccccn23)cc(OC)c1OC
6. OC(C1CCCC1=N/N=C1/CCCC1C(O)(C(F)(F)Cl)C(F)(F)Cl)(C(F)(F)Cl)C(F)(F)Cl (stereo unspecified)

A.
["> 100 µM", "> 40.1 µM", "31.4 µM", "20.8 µM", "6.85 µM", "> 10 µM"]

I have 7 molecules here; please give me TGI for each one.
1. c1cc(-c2cnn3nc(N4CCOCC4)ccc23)nc(NC2CC2)n1
2. CC1(C)N=C(/C(C#N)=[N+](/[O-])C(=O)c2ccccc2)C(C)(C)N1O
3. O=C1C(Cl)=C(Nc2ccc3c(c2NC2=C(Cl)C(=O)c4ccccc4C2=O)C(=O)c2ccccc2C3=O)C(=O)c2ccccc21
4. CCC(C)c1cnc(CC(C)C)c(=O)[nH]1 (stereo unspecified)
5. CN(c1ccccc1Cl)S(=O)(=O)c1ccccc1
6. NC(=O)C12CCC1C1CCCCC12N1CCOCC1 (stereo unspecified)
7. CCCCCCCCCCC(CN(CC)CC)C(O)c1ccccc1 (stereo unspecified)

A.
> 25 µM
> 100 µM
24.7 µM
> 100 µM
> 100 µM
> 100 µM
4.89 µM
